Listed here are sequences together with their documented self-aminoacylation.
Test system: biotinyl-Ile-oxazolone
Experiment: self-aminoacylation, catalytic enhancement (BIO) (fold over background); higher = more active; k-Seq, kA / k0A0; sequences stand for … in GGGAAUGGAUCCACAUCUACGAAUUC…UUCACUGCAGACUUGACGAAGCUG
Variants at the floor of the assay were thinned out.
result type: self-aminoacylation

CUUCGCCUAGGUCAUCGGGUG [Fam2.2 aminoacylation ribozyme variant] | 3.75
AAGUGUGCUAAUAUUCGCAAG [Fam3.1 aminoacylation ribozyme variant] | 1.92
CUACUUCAAACAAUGGGUCAG [Fam1A.1 aminoacylation ribozyme variant] | 0.6
CUACUUCAAACAAUCGGCCUA [Fam1A.1 aminoacylation ribozyme variant] | 1.48
AUUCACCUAGGCCUUCGGGUG [Fam2.2 aminoacylation ribozyme variant] | 2.49
CCACACUUGAGGCAAUCGGUC [Fam1B.1 aminoacylation ribozyme variant] | 1.63
AAGGUUCCUAAUAGUCGCAAG [Fam3.1 aminoacylation ribozyme variant] | 1.61
CCACACUUCAAACAAUCGUUC [Fam1B.1 aminoacylation ribozyme variant] | 0.759
